# System: T-47D breast
# run-description: NCI-60 one-dose screen, 48 h
# run-conditions: 10 µM unless noted
Compounds without any hit were thinned out: in the full panel of roughly 83,000, 20% have a hit. The source made the active and inactive calls. The calls were made as follows: active = growth percent below 10; inactive = the rest.
Outcomes: 1 (yes) for active, 0 (no) for inactive

molecule	group
CN[C@]1(c2ccccc2Cl)CCCC[C@H]1NCCCN1CCN(C)CC1	0 (no)
C=C(C)[C@@]12OC3(/C=C/C=C/CCCCC)O[C@@H]1[C@@H]1[C@@H]4O[C@]4(CO)[C@@H](O)[C@]4(O)C(=O)C(C)=C[C@H]4[C@@]1(O3)[C@H](C)[C@H]2OC(=O)c1ccccc1	0 (no)
COc1ccc(C2=CC(c3ccc(OC)c(OC)c3)c3c(c4ccccc4oc3=O)O2)cc1OC (configuration not stated)	0 (no)
CC(C)=CCC[C@H](C(=O)O)[C@@H]1CC[C@]2(C)C3=C(CC[C@@]12C)[C@@]1(C)CC[C@H](O)C(C)(C)[C@@H]1CC3	0 (no)
CN1CCC(O)(c2ccc(F)cc2)C(C(=O)c2ccc(F)cc2)C1 (configuration not stated)	0 (no)
O=P1(NCCCl)OCCCN1CCCl (configuration not stated)	0 (no)
CC[C@@H]1[C@@H](C)O[C@@](O)([C@@H](C)[C@H](O)[C@H](C)[C@H]2OC(=O)/C=C/C=C/[C@H](C)[C@@H]([C@@H](C)[C@@H](O)[C@H](C)[C@@]3(O)C[C@@H](O[C@H]4C[C@@H](O)[C@H](O)C(C)O4)[C@H](CC)[C@@H](C)O3)OC(=O)/C=C/C=C/[C@@H]2C)C[C@H]1O[C@@H]1C[C@@H](O)[C@H](O)C(C)O1 (some centres not stated)	1 (yes)

Values compiled from PubChem BioAssay (NCI).
